- test: yeast display, Sf9 membrane polyspecificity reagent, FACS + sequencing; frameworks hold sequencing errors
endpoint: polyreactivity (PSR sort gate)

Solved entries (count: 6):
residue_string	polyreactivity (PSR sort gate)
QVQLVESGGGLVQAGGSLRLSCAASGITFTYYVMGWYRQAPGKERELVAAITWRGGRTRYADSVKGRFTISRDNAKNTVYLQMNSLKPEDTAVYYCAADLHQRRYYYWGQGTQVTVSS	high polyreactivity
QVQVVESGGGLVQAGGSLRLSCAASGRTFRKNAMGWYRQAPGKERELVAAISSGGGSTYYADSVKGRFTISRDNAKNSDYLQINSLKPEDTAVYYCAVLVWYYDGYYSSYDYWGQGTQVTVSS	high polyreactivity
QVQLVESGGGLVQAGGSLRLSCAASGRIFPGYAMGWYRQAPGKERELVAAISSRGGSTYYADSVKGRFTISRDNAKHTVYLQMNSLKPEDTAVYYCAAEPSWWNVFYPGYNYWGQGTQVTVSS	high polyreactivity
QVQLVESGGGLVQAGGSLRLSCAASGSTFYRNAMGWYRQAPGKERAFVAAISFRGGGTYADSVKGRFTISRDNAKNTVYLQMNSLKPEDTAVYYCAADHLSYPRRYEYWGQGTQVTVSS	low polyreactivity
QVQLVESGGGLVQAGGSLRLSCAASGNIFVFYVMGWYRQAPGKERELVASISSTGNTYYADSVKGRFTISRDNAKNTVYLQMNSLKPEDTAVYYCAADSHQNVSGWLRWPRMDYWGQGTQVTVSS	low polyreactivity
QVQLVESGGGLVQAGGSLRLSCAASGRTFYGYAMGWYRQAPGKERELVAAITQRSGSTYYADSVKGRFTISRDNAKNTVYLQMNSLKPEDTAVYYYNADKSQRVRRGDYWGQGTQVTVSS	high polyreactivity

# polyreactivity (PSR sort gate) lookup, item `QVQLVESGGGLVQAGGSLRLSCAASGSTFYRYTMGWYRQAPGTERELVSAISRSGGSTYYADSVKGRFTISRDNAKNTVYLQMNSLKPEDTAVYYCATYGDFKSGYRYGYWGQGTQVTVSS`
high polyreactivity

Can you check `QVQLVESGGGLVQAGGSLRLSCAASGSTFYTYDMGWYRQAPGKERELVASITSGGSTNYADSVKGRFTISRDNAKNTVYFQMYCMKPVDTAVYYCAVGTYTIYSGTLYDYKYYWGQGTVVTVSS` next?
low polyreactivity

Can you check `QVQLVESGGGLVQAGGSLRLSCAASGRIFFIYPMGWYRQAPGKERELVAGINRTGGSTYYADSVKGRFTISRDNAKNTVYLQMNSLKPEDTAVYYCAAVSYYASDYRYDYWGQGTQVTVSS` next?
low polyreactivity

Can you check `QVQLVESGVGLVQAGGSLRLSCAASGSIFLHNAMGWYRQAPGKERELVAGITGSGGSTYYADSVKGRFTISRDNAKNTVYLQMNSLKPEDTAVYYCAAERYGYERYYWGQGTQVTVSS` next?
high polyreactivity

Can you check `QVQLVESGGGLVQAGGSLRLSCAASGRTFPYYAMGWYRQAPGKERELVAVISSADSTNYADSVKGRFTISRDNAKNTVYLQMNSLKPEDTAVYYCAADAVYYGDDYWGQCTQVTVSS` next?
low polyreactivity
